# testSystem: UniProt:Q8IWQ3
# Sequence (Q8IWQ3 whole entry, looked up): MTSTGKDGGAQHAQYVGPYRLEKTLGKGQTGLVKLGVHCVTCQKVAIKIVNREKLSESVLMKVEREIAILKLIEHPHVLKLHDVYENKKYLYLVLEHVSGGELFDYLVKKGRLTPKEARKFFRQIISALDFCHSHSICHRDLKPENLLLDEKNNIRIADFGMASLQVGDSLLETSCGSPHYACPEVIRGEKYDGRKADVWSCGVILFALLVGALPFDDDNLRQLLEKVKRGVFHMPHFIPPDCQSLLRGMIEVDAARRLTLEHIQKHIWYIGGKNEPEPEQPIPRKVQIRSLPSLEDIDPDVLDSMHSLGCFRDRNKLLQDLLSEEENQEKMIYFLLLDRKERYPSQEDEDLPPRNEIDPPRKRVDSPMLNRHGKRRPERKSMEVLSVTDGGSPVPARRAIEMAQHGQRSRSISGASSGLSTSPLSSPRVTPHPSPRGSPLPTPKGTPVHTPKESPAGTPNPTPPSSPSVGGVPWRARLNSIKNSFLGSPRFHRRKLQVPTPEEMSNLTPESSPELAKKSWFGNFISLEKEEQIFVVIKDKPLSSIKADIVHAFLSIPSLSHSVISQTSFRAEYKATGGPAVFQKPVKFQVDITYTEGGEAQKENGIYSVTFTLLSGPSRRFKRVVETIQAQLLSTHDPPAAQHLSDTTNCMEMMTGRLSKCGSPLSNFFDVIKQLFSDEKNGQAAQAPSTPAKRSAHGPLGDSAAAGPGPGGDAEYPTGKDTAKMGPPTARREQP
# testMethodNotes: radiometric filter-binding kinase assay
# measurementParameters: compound 10.0 µM
Task for the reader: assign each of the following molecules its reported residual activity.
Give bare numbers, in %.

Guide cases for residual activity, answers given:
COC(=O)/C=C/C(=O)OC: 91
CC(C)C[C@H](NC(=O)CNC(=O)c1cc(Cl)ccc1Cl)B1OC(=O)CC(CC(=O)O)(C(=O)O)O1 (stereo not given in full): 90
Oc1ccc(/C=C/c2cc(O)cc(O)c2)cc1: 50
COc1cc(C(=O)N2CCOCC2)c(F)cc1Nc1ncc(C(F)(F)F)c(NC2CC2)n1: 51

Now take the following molecule into account.
Entry O=C(Nc1ccccc1-c1cn2c(CN3CCNCC3)csc2n1)c1cnc2ccccc2n1 has what residual activity?
90

====

Please respond with reported residual activity for every item in the list.
# testSystem: PKN2 (human) (UniProt Q16513)
# Sequence (Q16513 whole entry, looked up): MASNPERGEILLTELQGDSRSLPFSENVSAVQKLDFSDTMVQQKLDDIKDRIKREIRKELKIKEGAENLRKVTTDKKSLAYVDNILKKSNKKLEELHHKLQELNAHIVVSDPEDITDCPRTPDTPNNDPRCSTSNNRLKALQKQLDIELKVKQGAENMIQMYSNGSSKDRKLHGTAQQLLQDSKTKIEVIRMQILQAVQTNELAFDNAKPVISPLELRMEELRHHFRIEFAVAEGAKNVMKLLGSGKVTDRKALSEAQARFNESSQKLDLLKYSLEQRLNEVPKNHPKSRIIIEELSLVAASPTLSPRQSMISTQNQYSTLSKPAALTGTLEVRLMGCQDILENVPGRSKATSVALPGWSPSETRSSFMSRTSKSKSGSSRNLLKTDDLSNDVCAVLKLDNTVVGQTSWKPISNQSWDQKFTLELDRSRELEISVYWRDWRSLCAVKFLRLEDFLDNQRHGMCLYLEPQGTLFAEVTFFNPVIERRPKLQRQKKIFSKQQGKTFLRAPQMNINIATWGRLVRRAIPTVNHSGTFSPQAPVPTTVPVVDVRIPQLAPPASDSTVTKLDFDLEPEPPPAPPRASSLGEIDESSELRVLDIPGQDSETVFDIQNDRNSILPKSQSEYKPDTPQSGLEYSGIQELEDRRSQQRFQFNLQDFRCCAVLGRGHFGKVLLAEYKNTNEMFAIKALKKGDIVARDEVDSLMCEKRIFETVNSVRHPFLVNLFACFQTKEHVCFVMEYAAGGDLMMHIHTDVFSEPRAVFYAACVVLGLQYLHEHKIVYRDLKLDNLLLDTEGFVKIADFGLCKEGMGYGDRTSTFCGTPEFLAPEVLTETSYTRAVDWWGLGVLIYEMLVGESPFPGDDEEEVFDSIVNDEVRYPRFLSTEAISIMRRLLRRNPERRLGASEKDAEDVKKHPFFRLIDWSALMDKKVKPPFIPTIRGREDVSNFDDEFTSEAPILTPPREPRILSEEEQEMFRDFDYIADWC
# testMethodNotes: radiometric filter-binding kinase assay
# measurementParameters: compound 0.1 µM

Consider the reported residual activity for these compounds:
NC1(c2ccc(-c3nc4ccn5c(=O)[nH]nc5c4cc3-c3ccccc3)cc2)CCC1: 95%
CN(C)C/C=C/C(=O)Nc1cccc(C(=O)Nc2ccc(Nc3nccc(-c4cccnc4)n3)cc2)c1: 99%
O=C(O)c1ccc(-c2c[nH]c3ncc(-c4ccccc4)cc23)cc1C1CCCC1: 76%
NC(=O)c1cc(-c2ccnc(NC3CCCCC3)c2)nc(N2CCNCC2)c1: 96%
c1ccc2c(-c3cnn4cc(-c5ccc(N6CCNCC6)cc5)cnc34)ccnc2c1: 65%
COc1ccc(-n2ncc3cnc(Nc4cc(OC)c(OC)c(OCCCN5CCN(C)CC5)c4)nc32)cc1: 57%

Fill in residual activity for each of the 8 compounds listed.
1. NC(=O)c1cc2c(-c3cccc(-c4ccccc4)c3)cnc(N)c2s1
2. COc1cc(O)c2c(c1)/C=C/C[C@H](O)[C@H](O)C(=O)/C=C\C[C@H](C)OC2=O
3. COc1ccc(N(C(=O)Nc2c(C)cccc2C)c2cc(Nc3ccc(N4CCN(C)CC4)cc3)ncn2)c(OC)c1
4. O=C(N[C@@H](COc1ccc2[nH]c(=O)[nH]c2c1)c1ccccc1)c1cccn(Cc2ccc(F)c(F)c2)c1=O
5. Cc1ccc(Sc2cnc(Nc3cccc(Br)n3)s2)cc1C(=O)N1CCN(C(=O)CN)CC1
6. CCc1cncnc1N1CCN(Cc2nc3cc(C(F)(F)F)ccc3[nH]2)CC1
7. COc1ccc2c(c1)c1c3c(c4c5ccccc5n(C)c4c1n2CC(O)CN(C)C)C(=O)NC3=O (stereo unspecified)
8. O=C(Nc1nc2cc(C(F)(F)F)cc(NC3CC3)n2n1)c1cccnc1

1. 100%
2. 102%
3. 99%
4. 108%
5. 80%
6. 95%
7. 63%
8. 104%

// for each compound in input: emit residual activity
1. O=C(Nc1ccccc1-c1cn2c(CN3CCNCC3)csc2n1)c1cnc2ccccc2n1
2. O=C(NCCCNc1nc(Nc2cccc(CN3CCOCC3)c2)ncc1C1CC1)C1CCC1

1: 90%; 2: 87%

====

# testSystem: UniProt:Q14680
# Sequence (Q14680 whole entry, looked up): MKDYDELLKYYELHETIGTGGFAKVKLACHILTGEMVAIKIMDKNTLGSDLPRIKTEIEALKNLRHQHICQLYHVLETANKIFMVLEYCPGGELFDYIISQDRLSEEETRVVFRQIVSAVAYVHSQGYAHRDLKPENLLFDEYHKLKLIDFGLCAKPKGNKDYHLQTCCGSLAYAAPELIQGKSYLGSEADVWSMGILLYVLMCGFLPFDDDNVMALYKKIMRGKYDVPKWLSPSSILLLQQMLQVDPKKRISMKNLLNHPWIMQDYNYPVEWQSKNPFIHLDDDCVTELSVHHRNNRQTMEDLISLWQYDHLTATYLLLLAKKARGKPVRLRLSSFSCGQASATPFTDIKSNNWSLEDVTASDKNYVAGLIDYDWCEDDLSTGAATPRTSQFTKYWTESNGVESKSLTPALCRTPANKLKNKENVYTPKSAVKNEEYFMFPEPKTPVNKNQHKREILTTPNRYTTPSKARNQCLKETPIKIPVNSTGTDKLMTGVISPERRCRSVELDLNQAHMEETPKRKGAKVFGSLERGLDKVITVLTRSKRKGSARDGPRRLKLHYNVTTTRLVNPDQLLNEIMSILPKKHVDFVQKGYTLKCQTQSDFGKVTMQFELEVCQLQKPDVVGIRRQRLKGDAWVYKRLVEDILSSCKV
# testMethodNotes: radiometric filter-binding kinase assay
# measurementParameters: compound 10.0 µM
readoutKind: residual activity (%)
One number for each entry, in %.

Please review the entries below; each comes with its answer.
O=c1c(O)c(-c2ccc(O)c(O)c2)oc2cc(O)c(O)c(O)c12: 9
CCCCCc1ccc(/C=C/[C@H](O)[C@@H](CO)NC)cc1: 98
O=C(N[C@@H](COc1ccc2[nH]c(=O)[nH]c2c1)c1ccccc1)c1cccn(Cc2ccc(F)c(F)c2)c1=O: 99
N#Cc1c(O)c2c(-c3ccc(-c4ccccc4O)cc3)csc2[nH]c1=O: 46

For every record below, what is its residual activity?
1. NCC(=O)Nc1ccc(-n2nc(C(F)(F)F)cc2-c2ccc3c(ccc4ccccc43)c2)cc1
2. NC(=O)c1cc2c(-c3cccc(-c4ccccc4)c3)cnc(N)c2s1

75
15
